Reference for the values: the supplement of paper PMC10126150

# Test system: ATP;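 further: ATP exposure 15 min at 22 °C before imaging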
# experiment-description: switch fluorescence ratio, 500 uM ATP over buffer (Cy3 cluster intensity, sum of 5 cycles each) (fold (ratio)); higher = stronger signal-on switching upon ATP binding; sequences stand for … in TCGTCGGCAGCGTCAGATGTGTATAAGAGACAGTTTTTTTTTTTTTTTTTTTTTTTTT…TC
# condition-context: aptamer strand: ATP DNA aptamer (quencher-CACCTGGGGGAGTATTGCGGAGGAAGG + anchor), 100 nM annealed; ATP concentration: 500 uM
result-type: switch fluorescence ratio
// no unit string in output, number only

Some solved entries appear below for comparison.
| sequence-string | target-or-system | switch fluorescence ratio |
| --- | --- | --- |
| TGGGTTTAAC | ATP | 1.08 |
| AATTGGGTAA | ATP | 1.02 |
| GAGTAGCGGA | ATP | 0.999 |
| TTTAGGGTG | ATP | 1.05 |
| AAGAGGGGGG | ATP | 0.999 |
| CGAAGATCGG | ATP | 1 |
| TTTTGCAGG | ATP | 0.991 |
| TAGGTAATTT | ATP | 0.968 |

Return reported switch fluorescence ratio; argument: ATGGAAAGTT
0.99

Query AATGGCAGGG next
0.988
